# Test system: Mus musculus
# protocolNotes: Analgesic activity in ICR mouse assessed as pain threshold at 0.1 umol/kg administered through oral gavage after 60 mins by tail flick method
# Type: functional
Reported Activity values for a set of compounds

[
  {
    "moleculeSmiles": "CC1(C)N([O])C(c2ccc(OCC(=O)NCCCNC(=O)[C@H](Cc3ccc(O)cc3)NC(=O)[C@@H](N)CCCNC(=N)N)cc2)=[N+]([O-])C1(C)C",
    "observedProperty": "Activity",
    "measValue": "29.36%"
  },
  {
    "moleculeSmiles": "CC1(C)N([O])C(c2ccc(OCC(=O)N[C@@H](Cc3ccc(O)cc3)C(=O)N[C@@H](CCC(=O)O)C(=O)O)cc2)=[N+]([O-])C1(C)C",
    "observedProperty": "Activity",
    "measValue": "13.44%"
  }
]

Note: attention shifts to another entry.
Kindly note: Mus musculus, "Cc1cc(C[C@H](NC(=O)COc2ccc(C3=[N+]([O-])C(C)(C)C(C)(C)N3[O])cc2)C(=O)N[C@@H](CCCNC(=N)N)C(=O)O)ccc1O" , Activity value reported: 18.97%

###

# System: Mus musculus
# protocolNotes: Analgesic activity in ICR mouse assessed as pain threshold at 0.1 umol/kg administered through oral gavage after 30 mins by tail flick method
# Format: functional
observedProperty: Activity (%)
Report only the number, with the unit % understood.

Use these answered entries as a reference point.
[
  {
    "moleculeSmiles": "CC1(C)N([O])C(c2ccc(OCC(=O)N[C@@H](Cc3ccc(O)c(CO)c3)C(=O)N[C@@H](CCCNC(=N)N)C(=O)O)cc2)=[N+]([O-])C1(C)C",
    "assayedTarget": "Mus musculus",
    "Activity [%]": 12.12
  },
  {
    "moleculeSmiles": "CC1(C)N([O])C(c2ccc(OCC(=O)N[C@@H](Cc3ccc(O)cc3)C(=O)N[C@@H](CCCNC(=N)N)C(=O)O)cc2)=[N+]([O-])C1(C)C",
    "assayedTarget": "Mus musculus",
    "Activity [%]": 12.53
  },
  {
    "moleculeSmiles": "CC1(C)N([O])C(c2ccc(OCC(=O)NCCNC(=O)[C@H](Cc3ccc(O)cc3)NC(=O)[C@@H](N)CCCNC(=N)N)cc2)=[N+]([O-])C1(C)C",
    "assayedTarget": "Mus musculus",
    "Activity [%]": 15.28
  },
  {
    "moleculeSmiles": "Cc1cc(C[C@H](NC(=O)COc2ccc(C3=[N+]([O-])C(C)(C)C(C)(C)N3[O])cc2)C(=O)N[C@@H](CCCNC(=N)N)C(=O)O)ccc1O",
    "assayedTarget": "Mus musculus",
    "Activity [%]": 10.24
  }
]

Sample "COc1cc(O)ccc1C[C@H](NC(=O)COc1ccc(C2=[N+]([O-])C(C)(C)C(C)(C)N2[O])cc1)C(=O)N[C@@H](CCCNC(=N)N)C(=O)O" ; Activity observed: 11.37

Entry under test: "CC1(C)N([O])C(c2ccc(OCC(=O)N[C@@H](CCCNC(=N)N)C(=O)N[C@@H](Cc3ccc(O)cc3)C(=O)O)cc2)=[N+]([O-])C1(C)C" . Its Activity was 10.1

###

# Test system: Mus musculus
# protocolNotes: Analgesic activity in ICR mouse assessed as pain threshold at 0.1 umol/kg administered through oral gavage after 60 mins by tail flick method
# Assay type: functional
observedProperty: Activity (%)
The reply should contain only the number, in %.

[
  {
    "moleculeSmiles": "CC1(C)N([O])C(c2ccc(OCC(=O)NCCNC(=O)[C@H](Cc3ccc(O)cc3)NC(=O)[C@@H](N)CCCNC(=N)N)cc2)=[N+]([O-])C1(C)C",
    "observedProperty": "Activity",
    "measureUnit": "%",
    "measValue": 25.75
  },
  {
    "moleculeSmiles": "CC1(C)N([O])C(c2ccc(OCC(=O)N[C@@H](CCCNC(=N)N)C(=O)N[C@@H](Cc3ccc(O)cc3)C(=O)O)cc2)=[N+]([O-])C1(C)C",
    "observedProperty": "Activity",
    "measureUnit": "%",
    "measValue": 14.31
  }
]

The record that follows has no Activity shown yet.
Consider "CCc1cc(O)ccc1C[C@H](NC(=O)COc1ccc(C2=[N+]([O-])C(C)(C)C(C)(C)N2[O])cc1)C(=O)N[C@@H](CCCNC(=N)N)C(=O)O" . Its measured Activity is 17.31

###

# System: Mus musculus
# protocolNotes: Analgesic activity in ICR mouse assessed as pain threshold at 0.1 umol/kg administered through oral gavage after 60 mins by tail flick method
# Type: functional
Readings of Activity for the listed compounds
Respond with the bare value in %.

[
  {
    "moleculeSmiles": "CC1(C)N([O])C(c2ccc(OCC(=O)N[C@@H](Cc3ccc(O)cc3)C(=O)N[C@@H](CCCCN)C(=O)O)cc2)=[N+]([O-])C1(C)C",
    "assayedTarget": "Mus musculus",
    "Activity, %": 19.35
  },
  {
    "moleculeSmiles": "CC1(C)N([O])C(c2ccc(OCC(=O)N[C@@H](Cc3ccc(O)cc3)C(=O)N[C@@H](CCCNC(=N)N)C(=O)O)cc2)=[N+]([O-])C1(C)C",
    "assayedTarget": "Mus musculus",
    "Activity, %": 18.66
  },
  {
    "moleculeSmiles": "CC1(C)N([O])C(c2ccc(OCC(=O)N[C@@H](Cc3ccc(O)c(CO)c3)C(=O)N[C@@H](CCCNC(=N)N)C(=O)O)cc2)=[N+]([O-])C1(C)C",
    "assayedTarget": "Mus musculus",
    "Activity, %": 19.13
  }
]

As a next step, examine the compound that follows.
For "COc1cc(O)ccc1C[C@H](NC(=O)COc1ccc(C2=[N+]([O-])C(C)(C)C(C)(C)N2[O])cc1)C(=O)N[C@@H](CCCNC(=N)N)C(=O)O" the compound record lists Activity as 16.33

###

# Test system: Mus musculus
# protocolNotes: Analgesic activity in ICR mouse assessed as pain threshold at 0.1 umol/kg administered through oral gavage after 30 mins by tail flick method
# Type: functional
observedProperty: Activity

The examples below pair each entry with its known result.
[
  {
    "moleculeSmiles": "CCc1cc(O)ccc1C[C@H](NC(=O)COc1ccc(C2=[N+]([O-])C(C)(C)C(C)(C)N2[O])cc1)C(=O)N[C@@H](CCCNC(=N)N)C(=O)O",
    "Activity": "10.78%"
  },
  {
    "moleculeSmiles": "CC1(C)N([O])C(c2ccc(OCC(=O)N[C@@H](Cc3ccc(O)cc3)C(=O)N[C@@H](CCC(=O)O)C(=O)O)cc2)=[N+]([O-])C1(C)C",
    "Activity": "11.1%"
  },
  {
    "moleculeSmiles": "CC1(C)N([O])C(c2ccc(OCC(=O)N[C@@H](Cc3ccc(O)cc3)C(=O)N[C@@H](CCCCN)C(=O)O)cc2)=[N+]([O-])C1(C)C",
    "Activity": "12.56%"
  }
]

Sure, the documented Activity for "CC1(C)N([O])C(c2ccc(OCC(=O)NCCCNC(=O)[C@H](Cc3ccc(O)cc3)NC(=O)[C@@H](N)CCCNC(=N)N)cc2)=[N+]([O-])C1(C)C" is 16.3%
